# systemName: Solute carrier organic anion transporter family member 1B3 (Homo sapiens)
# Sequence (Q9NPD5 whole entry): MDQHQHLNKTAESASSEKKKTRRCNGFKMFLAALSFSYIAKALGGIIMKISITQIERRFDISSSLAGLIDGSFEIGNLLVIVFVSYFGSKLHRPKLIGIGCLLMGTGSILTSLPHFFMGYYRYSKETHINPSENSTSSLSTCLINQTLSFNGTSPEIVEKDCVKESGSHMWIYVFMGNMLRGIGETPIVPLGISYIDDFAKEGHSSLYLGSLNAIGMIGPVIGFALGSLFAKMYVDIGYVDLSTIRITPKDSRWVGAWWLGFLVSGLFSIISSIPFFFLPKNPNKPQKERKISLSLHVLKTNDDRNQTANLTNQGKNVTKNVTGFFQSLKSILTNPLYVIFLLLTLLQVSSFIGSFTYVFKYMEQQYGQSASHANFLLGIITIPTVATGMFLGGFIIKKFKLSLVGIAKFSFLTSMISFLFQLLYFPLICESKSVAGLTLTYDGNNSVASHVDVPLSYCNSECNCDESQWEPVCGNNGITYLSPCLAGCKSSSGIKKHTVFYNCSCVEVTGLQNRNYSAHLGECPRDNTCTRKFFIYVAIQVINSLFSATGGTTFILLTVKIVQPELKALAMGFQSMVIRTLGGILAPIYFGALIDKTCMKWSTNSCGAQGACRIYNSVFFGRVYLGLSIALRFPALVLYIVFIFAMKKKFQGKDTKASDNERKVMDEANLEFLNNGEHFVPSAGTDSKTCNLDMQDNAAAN
Ki overview
Respond numerically; units are µM and should not be typed.

Example entries begin here.
molecule=CCCCC/C=C\C/C=C\C/C=C\C/C=C\CCCC(=O)O testvalue=0.82
molecule="CCC(=O)O[C@H]1[C@H](O[C@@H]2[C@@H](C)[C@H](O[C@H]3C[C@@](C)(OC)[C@@H](O)[C@H](C)O3)[C@@H](C)C(=O)O[C@H](CC)[C@@](C)(O)[C@H](O)[C@@H](C)C(=O)[C@H](C)C[C@@]2(C)O)O[C@H](C)C[C@@H]1N(C)C.CCCCCCCCCCCCOS(=O)(=O)O [ERYTHROMYCIN ESTOLATE]" testvalue=2.35

For this molecule ( Cc1cc2c(C(C)C)c(O)c(O)c(C=O)c2c(O)c1-c1c(C)cc2c(C(C)C)c(O)c(O)c(C=O)c2c1O ), measured Ki is 3.47

For this molecule ( CC(=O)OC/C=C(C)/C=C/C=C(C)/C=C/C1=C(C)CCCC1(C)C [GILRETINOL ACETATE] ), measured Ki is 3.89

For this molecule ( CC[C@@H](C(=O)[C@@H](C)[C@@H](O)[C@H](C)[C@@H]1O[C@@H]([C@@H](CC)C(=O)[O-])CC[C@@H]1C)[C@H]1O[C@]2(C=C[C@@H](O)[C@]3(CC[C@@](C)([C@H]4CC[C@](O)(CC)[C@H](C)O4)O3)O2)[C@H](C)C[C@@H]1C.[Na+] [SALINOMYCIN SODIUM] ), measured Ki is 3.31

For this molecule ( O=C(O[C@@H]1Cc2c(O)cc(O)cc2O[C@@H]1c1ccc(O)c(O)c1)c1cc(O)c(O)c(O)c1 [EPICATECHIN GALLATE] ), measured Ki is 3.46
